Test system: ACHN renal
Experiment Summary: NCI-60 one-dose screen, 48 h (100 = growth as untreated, 0 = no growth, -100 = all killed)
Details: 10 µM unless noted
The panel holds about 83,000 compounds, 20% with a hit somewhere; the sample as a whole holds those more often.
# label = bin(measured growth), where bins are class 1 = under 20%, class 2 = from 20% up to 40%, class 3 = 40% and over

>  <Molecule>
Cc1ccc(C)c(/C=C2\CN(C(=O)OC(C)(C)C)C/C(=C\c3cc(C)ccc3C)C2=O)c1

>  <Tested System>
ACHN renal

>  <Category Label>
class 1

$$$$
>  <Molecule>
CCN(CC)CCN1C(=O)c2c(c(C)c3c(oc4ccc(O)cc43)c2C)C1=O

>  <Tested System>
ACHN renal

>  <Category Label>
class 1

$$$$
>  <Molecule>
Cc1ccc(C(=O)Nc2cccc(C#Cc3cccc4[nH]nc(N)c34)c2)cc1C(F)(F)F

>  <Tested System>
ACHN renal

>  <Category Label>
class 3

$$$$
>  <Molecule>
COc1ccc(CCN2C(=O)/C(=C/c3ccc(C4Oc5ccccc5C5CC(c6ccccc6)=NN54)cc3)SC2=S)cc1 (stereo unspecified)

>  <Tested System>
ACHN renal

>  <Category Label>
class 3

$$$$
>  <Molecule>
O=C(CI)NC(=O)NC(=O)NCc1ccccc1

>  <Tested System>
ACHN renal

>  <Category Label>
class 1

$$$$
>  <Molecule>
Cc1ccc(/C=C(\C#N)n2nnc3cc(F)c(F)cc32)cc1

>  <Tested System>
ACHN renal

>  <Category Label>
class 2

$$$$
>  <Molecule>
COC(=O)c1ccc(NC(=O)Nc2ccc(C(=O)OC)cc2)cc1

>  <Tested System>
ACHN renal

>  <Category Label>
class 3

$$$$
>  <Molecule>
O=C(Nc1cnc(Nc2ccc(N3CCOCC3)nc2)nc1Oc1ccc(C(F)(F)F)cc1)c1ccncc1

>  <Tested System>
ACHN renal

>  <Category Label>
class 3

$$$$
>  <Molecule>
CCOC(=O)C(Cc1ccc(OC)cc1)C(=O)OCC

>  <Tested System>
ACHN renal

>  <Category Label>
class 3

$$$$
>  <Molecule>
C=C(C)[C@@H]1CC[C@]2(C)[C@H](CC=C3[C@@H]4CC(C)(C)CC[C@]4(CO)CC[C@]32C)[C@@]1(C)CCCN

>  <Tested System>
ACHN renal

>  <Category Label>
class 1

$$$$
>  <Molecule>
Cc1nc2sc(C(=O)Nc3cccc(Br)c3C)c(N)c2cc1C(O)c1ccccc1 (stereo unspecified)

>  <Tested System>
ACHN renal

>  <Category Label>
class 2

$$$$

Origin of measurements: PubChem BioAssay (NCI)
